biological target: recombinant human enzyme TTBK1 (1-1321) (Homo sapiens (Human), UniProt Q5TCY1); experiment: Enzymatic inhibition of TTBK1 (33P-ATP radiometric kinase assay); format: biochemical; conditions: recombinant human TTBK1 (1-1321), 0.005 mM ATP, 30 minutes at room temperature
Sequence (Q5TCY1 whole entry): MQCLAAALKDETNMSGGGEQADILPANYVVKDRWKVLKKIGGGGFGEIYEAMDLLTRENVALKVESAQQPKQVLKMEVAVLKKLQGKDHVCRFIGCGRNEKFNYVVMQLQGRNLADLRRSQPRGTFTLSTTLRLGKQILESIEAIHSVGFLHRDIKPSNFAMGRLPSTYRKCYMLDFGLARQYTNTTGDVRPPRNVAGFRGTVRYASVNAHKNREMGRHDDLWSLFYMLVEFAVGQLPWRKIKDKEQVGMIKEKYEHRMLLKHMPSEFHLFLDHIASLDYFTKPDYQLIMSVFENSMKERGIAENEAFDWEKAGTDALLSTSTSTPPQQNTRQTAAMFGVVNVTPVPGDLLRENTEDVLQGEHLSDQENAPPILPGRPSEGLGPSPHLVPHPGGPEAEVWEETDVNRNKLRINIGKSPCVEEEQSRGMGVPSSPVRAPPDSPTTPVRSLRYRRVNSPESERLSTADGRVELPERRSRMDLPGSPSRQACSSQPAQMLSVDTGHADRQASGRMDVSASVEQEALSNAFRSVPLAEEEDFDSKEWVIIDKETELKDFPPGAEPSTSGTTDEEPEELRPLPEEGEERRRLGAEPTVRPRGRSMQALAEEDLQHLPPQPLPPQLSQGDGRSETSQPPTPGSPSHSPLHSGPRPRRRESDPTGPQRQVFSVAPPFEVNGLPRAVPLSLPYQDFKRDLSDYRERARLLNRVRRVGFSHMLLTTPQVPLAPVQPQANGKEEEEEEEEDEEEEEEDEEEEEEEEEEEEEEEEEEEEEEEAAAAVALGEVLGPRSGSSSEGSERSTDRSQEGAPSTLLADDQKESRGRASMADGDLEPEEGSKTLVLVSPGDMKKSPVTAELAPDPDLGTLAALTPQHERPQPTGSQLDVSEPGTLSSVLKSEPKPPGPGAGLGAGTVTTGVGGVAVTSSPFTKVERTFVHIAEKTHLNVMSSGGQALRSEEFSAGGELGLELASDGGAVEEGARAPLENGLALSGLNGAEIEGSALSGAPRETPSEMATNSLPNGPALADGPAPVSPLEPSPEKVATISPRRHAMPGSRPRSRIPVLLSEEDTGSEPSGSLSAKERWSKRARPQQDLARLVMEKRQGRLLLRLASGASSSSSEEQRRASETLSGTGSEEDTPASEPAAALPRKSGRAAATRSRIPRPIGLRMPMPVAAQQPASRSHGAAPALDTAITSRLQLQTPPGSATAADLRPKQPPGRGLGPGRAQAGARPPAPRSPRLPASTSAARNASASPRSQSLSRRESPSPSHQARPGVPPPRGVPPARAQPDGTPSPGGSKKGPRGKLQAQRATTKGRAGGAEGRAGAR
One threshold, 800 nM, splits the recorded IC50 values: lower ones are met, equal or higher ones are not met.

IC50 strictly < 800 nM for this compound? "Nc1nc(Nc2ccc(Oc3cccc(Cl)c3)cc2)c2cc[nH]c2n1"
met

What would you report for "Clc1ccc(Oc2ccc(Nc3ncnc4[nH]ccc34)cc2)c(Cl)c1" ?
not met

Also "Nc1nc(Nc2ccc(Oc3ccc(C(F)(F)F)cc3)cc2)c2cc[nH]c2n1" , if possible.
met

Also "Fc1ccc(Oc2ccc(Nc3ncnc4[nH]ccc34)cc2)cc1" , if possible.
met

Now consider "Nc1nc(Nc2ccc(Oc3cccc(C(F)(F)F)c3)cc2)c2cc[nH]c2n1" and answer again.
not met

====

Consider the following molecules; for each one, report its Papp at 2.5 h.
test: Permeability of the blood-brain barrier by PAMPA (porcine brain lipid); conditions: pig, pH 7.4
Answers are plain numbers, in ×10⁻⁶ cm/s.

Some entries whose results are on file:
> print(dat)
                           substancesmiles    readoutkind  measurement
1  Nc1ccc(Sc2ccc(Nc3ncnc4[nH]ccc34)cc2)cc1  Papp at 2.5 h          4.7
2  c1ccc(COc2ccc(Nc3ncnc4[nH]ccc34)cc2)cc1  Papp at 2.5 h         18.3

Okay, next one:
GET /values?readout=Papp at 2.5 h&item= "O=C(c1ccccc1)c1ccc(Nc2ncnc3[nH]ccc23)cc1"
6.9

====

assay: Permeability of the blood-brain barrier by PAMPA (porcine brain lipid); conditions: pig, pH 7.4
readoutKind: Papp at 2.5 h (×10⁻⁶ cm/s)
Give bare numbers, in ×10⁻⁶ cm/s.

Study these solved cases before continuing.
> print(dat)
                                   molecule  measurement
1  FC(F)(F)c1ccc(Oc2ccc(Nc3ncnc4[nH]ccc34)cc2)cc1 [Compound 6]          7.6
2  Clc1cccc(Oc2ccc(Nc3ncnc4[nH]ccc34)cc2)c1 [Compound 12]          8.4
3  Clc1ccc(Oc2ccc(Nc3ncnc4[nH]ccc34)cc2)c(Cl)c1 [Compound 16]         17.3
4  Clc1ccccc1Oc1ccc(Nc2ncnc3[nH]ccc23)cc1 [Compound 14]          9.7

Would you be so kind as to report Papp at 2.5 h for each listed record?
1. COc1cccc(Oc2ccc(Nc3ncnc4[nH]ccc34)cc2)c1 [Compound 17]
2. Fc1ccc(Oc2ccc(Nc3ncnc4[nH]ccc34)cc2)cc1 [Compound 3]
3. FC(F)(F)c1cccc(Oc2ccc(Nc3ncnc4[nH]ccc34)cc2)c1 [Compound 13]
4. Cc1cccc(Oc2ccc(Nc3ncnc4[nH]ccc34)cc2)c1 [Compound 11]

1: 10.5; 2: 15.6; 3: 6.8; 4: 14

# batch: return Papp at 2.5 h for each of the 8 molecules below
1. Cc1ccc(Oc2ccc(Nc3ncnc4[nH]ccc34)cc2)cc1 [Compound 10]
2. Clc1ccc(Oc2ccc(Nc3ncnc4[nH]ccc34)cc2)cc1 [Compound 2]
3. Brc1ccc(Oc2ccc(Nc3ncnc4[nH]ccc34)cc2)cc1 [Compound 7]
4. Nc1nc(Nc2ccc(Oc3ccc(C(F)(F)F)cc3)cc2)c2cc[nH]c2n1 [Compound 18]
5. Nc1nc(Nc2ccc(Oc3cccc(Cl)c3)cc2)c2cc[nH]c2n1 [Compound 21]
6. O=C(c1ccc(F)cc1)c1ccc(Nc2ncnc3[nH]ccc23)cc1 [Compound 26]
7. Nc1nc(Nc2ccc(Oc3ccc(Cl)cc3)cc2)c2cc[nH]c2n1 [Compound 20]
8. Nc1nc(Nc2ccc(Oc3cccc(C(F)(F)F)c3)cc2)c2cc[nH]c2n1 [Compound 19]

18.7
11.5
11
7.5
14.1
9.4
9.7
7.7

====

molecular target: recombinant human enzyme TTBK2(1-450) (Homo sapiens (Human), UniProt Q6IQ55); test: Enzymatic inhibition of TTBK2 (33P-ATP radiometric kinase assay); conditions: recombinant human TTBK2(1-450), 0.005 mM ATP, 30 minutes at room temperature
Sequence (Q6IQ55 1-450): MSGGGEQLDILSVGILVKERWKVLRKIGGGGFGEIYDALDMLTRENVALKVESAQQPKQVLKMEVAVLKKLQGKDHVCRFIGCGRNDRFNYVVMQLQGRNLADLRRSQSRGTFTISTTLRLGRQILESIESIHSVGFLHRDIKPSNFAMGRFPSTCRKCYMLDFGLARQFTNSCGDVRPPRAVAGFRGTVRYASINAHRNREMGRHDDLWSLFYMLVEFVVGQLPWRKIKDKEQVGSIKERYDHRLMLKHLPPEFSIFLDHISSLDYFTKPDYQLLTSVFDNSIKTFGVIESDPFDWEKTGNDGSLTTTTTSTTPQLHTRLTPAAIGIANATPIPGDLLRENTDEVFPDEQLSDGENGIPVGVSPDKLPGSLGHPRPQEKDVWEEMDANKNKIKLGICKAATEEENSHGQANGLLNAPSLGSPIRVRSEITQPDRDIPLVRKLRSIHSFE
readoutKind: pIC50
Numbers only, as −log10 of the molar value.

Answered examples (4):
> print(dat)
                            substancesmiles  measurement
1   Fc1ccc(Oc2ccc(Nc3ncnc4[nH]ccc34)cc2)cc1         5.52
2  Nc1nc(Nc2ccc(Oc3ccc(C(F)(F)F)cc3)cc2)c2cc[nH]c2n1         5.35
3  Clc1ccc(Oc2ccc(Nc3ncnc4[nH]ccc34)cc2)c(Cl)c1         5.24
4  Nc1nc(Nc2ccc(Oc3cccc(Cl)c3)cc2)c2cc[nH]c2n1         5.52

Could you now look at the following molecule, please?
Fill in the blank: the reported pIC50 of "Nc1nc(Nc2ccc(Oc3cccc(C(F)(F)F)c3)cc2)c2cc[nH]c2n1" is ____.
5.41

====

assay: Permeability of the blood-brain barrier by PAMPA (porcine brain lipid); conditions: pig, pH 7.4
readoutKind: Papp at 2.5 h (×10⁻⁶ cm/s)
Give bare numbers, in ×10⁻⁶ cm/s.

Recorded results for 2 compounds are shown here.
> print(dat)
                                   compound  unitssymbol  measurement
1  O=[N+]([O-])c1ccc(Oc2ccc(Nc3ncnc4[nH]ccc34)cc2)cc1 [Compound 8]   ×10⁻⁶ cm/s         14.3
2  c1ccc(Oc2ccc(Nc3ncnc4[nH]ccc34)cc2)cc1 [Compound 1]   ×10⁻⁶ cm/s         23.2

Proceeding to the next compound to report its Papp at 2.5 h.
GET /values?readout=Papp at 2.5 h&item= COc1ccc(Oc2ccc(Nc3ncnc4[nH]ccc34)cc2)cc1 [Compound 5]
11.8

src = patent US20250051335A1
